Provide the recorded mPTP Rat liver pIC50* for the entries that follow.
# Tested on: mPTP
# TEST_DETAILS: mPTP activity (Ca2+ retention) assay in isolated rat liver mitochondria
# Format: biochemical
# MEASUREMENT_CONTEXT: isolated rat liver mitochondria; Fluo5N fluorescence at 10 min after CaCl2 (75 μM) bolus; DMSO 0%, 5 μM cyclosporin A 100% inhibition
Numbers only.

Sample records with mPTP Rat liver pIC50*:
{"columns": ["COMPOUND", "TGT", "TEST_READOUT", "ENDPOINT_VALUE"],
 "data": [
  ["O=C(c1cc(O)no1)N1CC(c2ccc(F)cc2)C2(CCC2)C1 (single isomer, unassigned) [Example 36a]", "mPTP", "mPTP Rat liver pIC50*", 6.65],
  ["O=C(c1cc(O)no1)N1CC(c2ccccc2)C2(CCC2)C1 (single isomer, unassigned) [Example 23a]", "mPTP", "mPTP Rat liver pIC50*", 6.17],
  ["CC1(C)CN(C(=O)c2cncc(=O)[nH]2)CC1c1ccccc1 (stereo not shown) [Example 8]", "mPTP", "mPTP Rat liver pIC50*", 6.04]
]}

Answer with the recorded mPTP Rat liver pIC50* of O=C(c1cc(O)no1)N1CC(c2ccccc2)C2(CCC2)C1 (stereo not shown) [Example 22] only.
6.12

====

# System: mPTP
# TEST_DETAILS: mPTP activity (Ca2+ retention) assay in isolated rat liver mitochondria
# Type: biochemical
# MEASUREMENT_CONTEXT: isolated rat liver mitochondria; Fluo5N fluorescence at 10 min after CaCl2 (75 μM) bolus; DMSO 0%, 5 μM cyclosporin A 100% inhibition
Mark Not satisfied for mPTP Rat liver pIC50* values under 6, and Satisfied for everything at or above.

Example entries begin here.
{"columns": ["COMPOUND", "QUALITATIVE_LABEL"],
 "data": [
  ["O=C(c1cc(O)no1)N1CC(c2cccc(F)c2)C2(CCC2)C1 (single isomer, unassigned) [Example 38a]", "Satisfied"],
  ["O=C(c1cncc(=O)[nH]1)N1CC(c2cccc(F)c2)C2(CCC2)C1 (single isomer, unassigned) [Example 40a]", "Satisfied"],
  ["O=C(c1cncc(=O)[nH]1)N1CC(c2cccc(Cl)c2F)C2(CCC2)C1 (single isomer, unassigned) [Example 33b]", "Not satisfied"],
  ["O=C(c1cncc(=O)[nH]1)N1CC(c2ccc(F)cc2)C2(CCC2)C1 (single isomer, unassigned) [Example 35b]", "Not satisfied"],
  ["O=C(c1cncc(O)n1)N1CC(c2ccccc2)C2(CCC2)C1 (single isomer, unassigned) [Example 6a]", "Satisfied"]
]}

hey, is mPTP Rat liver pIC50* for this one >= 6? O=C(c1cncc(=O)[nH]1)N1CC(c2ccc(F)cc2F)C2(CCC2)C1 (single isomer, unassigned) [Example 37b]
Not satisfied

hey, is mPTP Rat liver pIC50* for this one >= 6? O=C(c1cc(O)no1)N1CC(c2ccccc2)C2(CCC2)C1 (single isomer, unassigned) [Example 23b]
Not satisfied

hey, is mPTP Rat liver pIC50* for this one >= 6? O=C(c1cc(O)no1)N1CC(c2ccc(F)cc2)C2(CCC2)C1 (single isomer, unassigned) [Example 36b]
Not satisfied

hey, is mPTP Rat liver pIC50* for this one >= 6? O=C(c1cc(O)no1)N1CC(c2cccc(F)c2F)C2(CCC2)C1 (single isomer, unassigned) [Example 39a]
Satisfied

hey, is mPTP Rat liver pIC50* for this one >= 6? O=C(c1cncc(O)n1)N1CC(c2ccccc2)C2(CCC2)C1 (single isomer, unassigned) [Example 6b]
Not satisfied

hey, is mPTP Rat liver pIC50* for this one >= 6? O=C(c1cncc(=O)[nH]1)N1CC(c2cccc(F)c2F)C2(CCC2)C1 (single isomer, unassigned) [Example 43a]
Satisfied

hey, is mPTP Rat liver pIC50* for this one >= 6? CC1(C)CN(C(=O)c2cncc(=O)[nH]2)CC1c1ccccc1 (single isomer, unassigned) [Example 10b]
Not satisfied
